The reader will find reported protein stability index values listed item by item below.
experiment: protein stability index of a GFP-peptide fusion (yeast GPS) (PSI 1-4); higher = more stable; sorted into four equal gates, so the index is relative within each strain; settings: doa10∆
TEST_READOUT: protein stability index

• NSLSSNLSSLIVEINNV [YJL041W/NSP1] = 2.26
• NPYSSYVSQIRKHKRVS [YAR002W/NUP60] = 2.23
• AAVIMRCKIYFFYLRIS [PCI8] = 1.33
• LTNGVTEHVRQNAKLLA [RRP6] = 1.6
• KKMTKKAKRSNLYTPKA [PRP8] = 2.9
• WKYNNFLQKFEIAFHLT [YML103C/NUP188] = 2.36
• NISSSQQLLPAPQLFPY [DSN1] = 2.44
• ALKDPQTDADRVKDPQW [RIP1] = 3.26
• TNVLNFIKLQKIDIIEL [FAS1] = 2.35
• YDALLSINVHSNNITSG [RET1] = 2.52
• TAPANTTDANGSKENYQ [MED2] = 2.08
• AYGNWFNGLKPLIQNSM [PRP8] = 2.94
• MCQNPMQKPVPFVPVLD [FAS1] = 1.47
• PVLKKKAAFLGSEVRLR [COR1] = 2.91
• NLMGNRNNHNSNTSTSK [SNF12] = 3
• KIRELEAELSSTKVENS [YIL149C/MLP2] = 2.79
• ANVELTPSNIRSLCEVL [RPC34] = 1.32
• TRNITDYSINSRYEPKV [PRE7] = 2.62
• LEIAKDFQPTELFDILS [IRR1] = 3.07
• VPVIESAGFETDLRLST [SNU114] = 3.14
• TNVRLYSLLLASKGIDR [ECM29] = 2.13
• INGINWRFHTPQKYVLH [SIN4] = 2
• KQFVVDVLHPNRANVSK [RPS24A] = 2.94
• IHFREHQSELIIKQTVH [YMR129W/POM152] = 2.46
• KHGTYDKLDDDGLIAPG [RPB2] = 3.02
• NILIASLMDTLITPAVR [YCG1] = 1.41
• KCGVISPRFNVKIGDIE [RPS22A] = 3.28
• QVEYALEAIKQGSVTVG [PRE5] = 2.92
• YTKETYQSRGIDAMKAV [RPN6] = 2.59
• EESISKFPDMGSLWVEF [RPB5] = 2.53
